Assay: Half life in Sprague-Dawley rat plasma up to 1 uM by LC-MS/MS analysis
Type: ADME, cell-free

- Query Smiles: "COc1ccc(C(CCCN2CCN(Cc3cc(OC)c(OC)c(OC)c3)CC2)c2ccc(OC)cc2)cc1"
  half-life: "> 4 h"
- Query Smiles: "COc1ccc(C(CCCN2CCN(CCOc3cc(OC)c(OC)c(OC)c3)CC2)c2ccc(OC)cc2)cc1"
  half-life: "> 4 h"
- Query Smiles: "COc1ccc(C(CCCN2CCN(C/C=C/c3cc(OC)c(OC)c(OC)c3)CC2)c2ccc(OC)cc2)cc1"
  half-life: "> 4 h"
- Query Smiles: "CCOC(=O)[C@H](CCc1ccccc1)N[C@@H](C)C(=O)N1CCC[C@H]1C(=O)O"
  half-life: "0.417 h"
- Query Smiles: "COc1cc(/C=C/CN2CCN(Cc3c4ccccc4cc4ccccc34)CC2)cc(OC)c1OC"
  half-life: "> 4 h"
